Hello, the source for this data is patent US8895585B2, in case you need it.

biological target: glutathione S-transferase (GST)-fused full-length human Syk protein (Homo sapiens, UniProt P43405); construct: (GST)-fused full-length human Syk protein; GST (glutathione S-transferase); purchased Carna Biosciences; test: Syk enzyme assay; type: biochemical; conditions: Syk enzyme assay, Test Example 1; read-out: IC50 of Syk-inhibitory activity
measured_quantity: IC50

Worked cases, answers included:
CC(C)C[C@@H](Nc1nc(Nc2ccc3c(cnn3CCF)c2)c(C(N)=O)cc1F)[C@H](C)N [Example 006-419] | < 10 nM
CCc1nn(CC(F)F)c2ccc(Nc3nc(N[C@@H]4CCCC[C@@H]4N)c(F)cc3C(N)=O)cc12 [Example 006-455] | < 10 nM
Cn1c(C(=O)NCCN2CCOCC2)cc2c(Nc3nc(N[C@@H]4CCCC[C@@H]4N)c(F)cc3C(N)=O)ccnc21 [Example 029-011] | 100 to 1000 nM
CC[C@@H](Nc1nc(Nc2ccc3c(cnn3CC)c2)c(C(N)=O)cc1F)[C@H](C)N [Example 006-211] | < 10 nM
NC(=O)c1cc(F)c(N[C@@H]2CCCC[C@@H]2N)nc1Nc1cnc2c(NS(=O)(=O)c3cccnc3)cccc2c1 (relative stereo) [Example 41-8] | 10 to 50 nM

Consider the molecule C[C@H](N)[C@@H](C)Nc1nc(Nc2cncc(-c3ccccc3)c2)c(C(N)=O)cc1F (racemic) [Example 006-195] and give its recorded IC50.
< 10 nM

Consider the molecule C[C@H](N)[C@@H](CC1CC1)Nc1nc(Nc2ccc3ncccc3c2)c(C(N)=O)cc1F [Example 006-217] and give its recorded IC50.
< 10 nM
